# Tested on: B16-F10
# assay_protocol: Antitumor activity against mouse B16-F10 cells implanted in C57 mouse assessed as reduction in tumor growth at 1 mg, IT administered once daily for 3 consecutive days starting from day 5 post inoculation
# Assay type: functional, cell-based
# condition: time 3.0 day
Calls of active or inactive are those of the source. No cut-off for these calls is given here. Starred links: 1 amine or outer side, 2 acyl side, 3 side chain; linkers in the order of their positions; H or OH if unused. Positions of bridges follow the written chain, without caps; N, C: chain ends. Non-standard residues stand in square brackets, D forms with d. Residues, ends and D or L forms follow the SMILES beside them. X1 = CC(C)C[C@@](CCCC=[*:3])(N[*:1])C(=O)[*:2]; X2 = NCCCC[C@@](CCCC=[*:3])(N[*:1])C(=O)[*:2]; Dip = N[C@H](C(=O)O)C(c1ccccc1)c1ccccc1; S5 = C=CCCC[C@](C)(N)C(=O)O
One label from this list, please: active, inactive

>>> assigned_label("CC[C@H](C)[C@@H]1NC(=O)[C@H](CCCNC(=N)N)NC(=O)[C@H](CCCCN)NC(=O)[C@@](C)(NC(=O)[C@H](CC(C)C)NC(=O)CN)CCC/C=C\\CCC[C@@](C)(C(=O)N[C@H](C(=O)N[C@@H](CC(C)C)C(=O)N[C@@H](CC(C)C)C(N)=O)[C@@H](C)O)NC1=O (H-GL[S5]KRI[S5]TLL-NH2; staple (Z) 3-7)")
"active"
>>> assigned_label("CC[C@H](C)[C@H](NC(=O)[C@H](CCCNC(=N)N)NC(=O)[C@H](CCCCN)NC(=O)[C@H](CC(C)C)NC(=O)[C@H](CC(C)C)NC(=O)CN)C(=O)N[C@@H](CCCCN)C(=O)N[C@H](C(=O)N[C@@H](CC(C)C)C(=O)N[C@@H](CC(C)C)C(N)=O)[C@@H](C)O [ANOPLIN] (H-GLLKRIKTLL-NH2)")
"inactive"
>>> assigned_label("NCCCC[C@H](NC(=O)[C@@H](NC(=O)[C@H](Cc1c[nH]c2ccccc12)NC(=O)[C@H](CCCCN)NC(=O)[C@H](CCCCN)NC(=O)[C@H](Cc1c[nH]c2ccccc12)NC(=O)[C@H](Cc1c[nH]c2ccccc12)NC(=O)[C@H](CCCCN)NC(=O)[C@@H](N)CCCCN)C(c1ccccc1)c1ccccc1)C(N)=O [RUXOTEMITIDE] (H-KKWWKKW[Dip]K-NH2)")
"active"

Attention now shifts to the item below.
## Input What outcome does the record of this test show for CC[C@H](C)[C@@H]1NC(=O)[C@H](CCCNC(=N)N)NC(=O)[C@H](CCCCN)NC(=O)[C@@](CC(C)C)(NC(=O)[C@H](CC(C)C)NC(=O)CN)CCC/C=C\CCC[C@@](CCCCN)(C(=O)N[C@H](C(=O)N[C@@H](CC(C)C)C(=O)N[C@@H](CC(C)C)C(N)=O)[C@@H](C)O)NC1=O (H-GL[X1]KRI[X2]TLL-NH2; staple (Z) 3-7) ?
## Output active

* * *

Let's look at some compounds and their measured half-life at 1000 µM.
# assay_protocol: Stability of the compound assessed as alpha chymotrypsin (unknown origin)-mediated proteolysis by measuring degradation half life at 1 mM measured up to 12 hrs by HPLC analysis
# Type: ADME
# condition: human, alpha-chymotrypsin
Non-standard residues stand in square brackets, D forms with d. Residues, ends and D or L forms follow the SMILES beside them. Dip = N[C@H](C(=O)O)C(c1ccccc1)c1ccccc1
Express it in min; write the number only.

>>> recorded_value("CC[C@H](C)[C@H](NC(=O)[C@H](CCCNC(=N)N)NC(=O)[C@H](CCCCN)NC(=O)[C@H](CC(C)C)NC(=O)[C@H](CC(C)C)NC(=O)CN)C(=O)N[C@@H](CCCCN)C(=O)N[C@H](C(=O)N[C@@H](CC(C)C)C(=O)N[C@@H](CC(C)C)C(N)=O)[C@@H](C)O [ANOPLIN] (H-GLLKRIKTLL-NH2)")
12

Now examine the next entry.
## Input Look up half-life at 1000 µM of NCCCC[C@H](NC(=O)[C@@H](NC(=O)[C@H](Cc1c[nH]c2ccccc12)NC(=O)[C@H](CCCCN)NC(=O)[C@H](CCCCN)NC(=O)[C@H](Cc1c[nH]c2ccccc12)NC(=O)[C@H](Cc1c[nH]c2ccccc12)NC(=O)[C@H](CCCCN)NC(=O)[C@@H](N)CCCCN)C(c1ccccc1)c1ccccc1)C(N)=O [RUXOTEMITIDE] (H-KKWWKKW[Dip]K-NH2) and report it.
## Output 34

// provenance: ChEMBL document CHEMBL5029142
